tested on: A549; assay: Cytotoxicity against human A549 cells after 72 hrs by MTT assay; format: functional, cell-based; conditions: A549, 72 h
measure: IC50 (µM)
Your answer should be a plain number; it is taken to be in µM.

1) COc1cccc2c1C(=O)c1c(O)c3c(c(O)c1C2=O)C[C@@](O)(C(=O)CO)C[C@@H]3O[C@H]1C[C@H](N)[C@H](O)[C@H](C)O1 | 0.72
2) C=C1C(=O)O[C@H]2[C@H]1CC[C@]1(C)C3(C)C(=O)C=CC231 (stereo partly drawn) | 14.5
3) C[C@@H]1C(=O)O[C@H]2[C@H]1CC[C@]1(C)C3(C)C(=O)C=CC231 (stereo partly drawn) | 69.4

Pending compound:
Supply reported IC50 belonging to this compound: C=C1C(=O)O[C@@H]2C3=C(C)C(=O)C=C[C@]3(C)CC[C@@H]12 13.4

====

test system: PC-3; assay: Cytotoxicity against human PC3 cells after 72 hrs by MTT assay; format: functional, cell-based; conditions: PC-3, 72 h
measure: IC50 (µM)
Write the value in µM as a bare number.

Here's what some known entries look like.
1. C=C1C(=O)O[C@@H]2C3=C(C)C(=O)C[C@H]3[C@](C)(OC(C)=O)CC[C@@H]12 | 14.4
2. C=C1C(=O)O[C@H]2[C@H]1CC[C@]1(C)C3(C)C(=O)C=CC231 (some centres not stated) | 5.07
3. COc1cccc2c1C(=O)c1c(O)c3c(c(O)c1C2=O)C[C@@](O)(C(=O)CO)C[C@@H]3O[C@H]1C[C@H](N)[C@H](O)[C@H](C)O1 | 1.32
4. C=C1C(=O)O[C@@H]2C3=C(C)C(=O)C=C[C@]3(C)CC[C@@H]12 | 13

// switching to the query compound
Tell me measured IC50 for C[C@@H]1C(=O)O[C@H]2[C@H]1CC[C@]1(C)C3(C)C(=O)C=CC231 (some centres not stated) please. 66.5

====

system: UACC-257; assay: Cytotoxicity against human UACC257 cells after 72 hrs by MTT assay; type: functional, cell-based; settings: UACC-257, 72 h
pIC50: −log10 of the molar value.
measure: pIC50

Known pIC50 results, listed for orientation:
1. CC(=O)O[C@]1(C)CC[C@H]2[C@H](C)C(=O)O[C@@H]2C2=C(C)C(=O)C[C@H]21 | < 4.00
2. C[C@@H]1C(=O)O[C@H]2[C@H]1CC[C@]1(C)C3(C)C(=O)C=CC231 (some centres not stated) [LUMISANTONIN] | < 4.00
3. COc1cccc2c1C(=O)c1c(O)c3c(c(O)c1C2=O)C[C@@](O)(C(=O)CO)C[C@@H]3O[C@H]1C[C@H](N)[C@H](O)[C@H](C)O1 [DOXORUBICIN] | 6.22
4. C=C1C(=O)O[C@@H]2C3=C(C)C(=O)C=C[C@]3(C)CC[C@@H]12 | 5.22

For the compound CC1=C2[C@H]3OC(=O)[C@@H](C)[C@@H]3CC[C@@](C)(O)[C@@H]2C[C@@H]1O , give its measured pIC50 value. < 4.00

# return recorded pIC50 for entry CC1=C2[C@H]3OC(=O)[C@@H](C)[C@@H]3CC[C@@](C)(O)[C@@H]2CC1=O < 4.00

Return pIC50 for the following compound: CC1=C2[C@H]3OC(=O)[C@](C)([Se]c4ccccc4)[C@@H]3CC[C@@]2(C)C=CC1=O < 4.00

====

system: UACC-257; assay: Cytotoxicity against human UACC257 cells after 72 hrs by MTT assay; type: functional, cell-based; conditions: UACC-257, 72 h
measure: IC50 (µM)
Field format: number, assumed µM, no unit text.

1) C=C1C(=O)O[C@H]2[C@H]1CC[C@]1(C)C3(C)C(=O)C=CC231 (stereo not given in full) | 4.87

Would you kindly look at the next entry?
Annotate the compound C=C1C(=O)O[C@@H]2C3=C(C)C(=O)C[C@H]3[C@](C)(OC(C)=O)CC[C@@H]12 with its measured IC50. 7.76

====

test system: A549; assay: Cytotoxicity against human A549 cells after 72 hrs by MTT assay; assay type: functional, cell-based; conditions: A549, 72 h
pIC50: −log10 of the molar value.
measure: pIC50

In the examples that follow, each entry is paired with its recorded pIC50.
1. CC1=C2[C@H]3OC(=O)[C@](C)([Se]c4ccccc4)[C@@H]3CC[C@@]2(C)C=CC1=O | < 4.00
2. C=C1C(=O)O[C@@H]2C3=C(C)C(=O)C[C@H]3[C@](C)(OC(C)=O)CC[C@@H]12 | 4.99
3. CC(=O)O[C@]1(C)CC[C@H]2[C@H](C)C(=O)O[C@@H]2C2=C(C)[C@@H](O)C[C@H]21 | < 4.00

Query compound follows.
Given CC1=C2[C@H]3OC(=O)[C@@H](C)[C@@H]3CC[C@@](C)(O)[C@@H]2C[C@@H]1O , respond with its pIC50. < 4.00

====

system: UACC-257; assay: Cytotoxicity against human UACC257 cells after 72 hrs by MTT assay; type: functional, cell-based; settings: UACC-257, 72 h
Overview of recorded IC50 for various compounds

Study these solved cases before continuing.
1) CC(=O)O[C@]1(C)CC[C@H]2[C@H](C)C(=O)O[C@@H]2C2=C(C)[C@@H](O)C[C@H]21 | > 100 µM
2) CC1=C2[C@H]3OC(=O)[C@@H](C)[C@@H]3CC[C@@]2(C)C=CC1=O [SANTONIN] | > 100 µM

Specify measured IC50 for CC(C)=C1CC[C@H]2[C@H](C)C(=O)O[C@@H]2/C1=C\CC(=O)O [ISOFOTOSANTONIC ACID] . > 100 µM
